IC50, UniProtKB Q9Q6P4, per-entry values.
Sequence (Q9Q6P4 2529-2794 limits assumed): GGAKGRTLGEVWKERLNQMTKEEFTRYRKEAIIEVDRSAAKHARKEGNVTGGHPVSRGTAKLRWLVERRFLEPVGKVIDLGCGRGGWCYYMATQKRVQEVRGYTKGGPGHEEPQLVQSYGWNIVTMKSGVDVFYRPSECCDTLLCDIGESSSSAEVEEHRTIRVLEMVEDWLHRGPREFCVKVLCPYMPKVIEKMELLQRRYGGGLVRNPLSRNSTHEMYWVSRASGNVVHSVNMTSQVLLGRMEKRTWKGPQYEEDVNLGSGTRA
Numeric answer only, unit µM assumed.

CC(=O)c1cc(O)c2ccccc2c1O    5.2

The record that follows has no IC50 shown yet.
GET IC50 | system: UniProtKB Q9Q6P4 | item: COCCn1c2nc(=O)n(-c3ccccc3)c(=O)c-2nc2ccccc21
12.2

====

pIC50, UniProt:Q6YMS4, per-entry values.
Answer as the number alone; pIC50 is minus log10 of concentration in mol/L.

CC(=O)c1cc(O)c2ccccc2c1O    5.96

The record that follows has no pIC50 shown yet.
GET pIC50 | system: UniProt:Q6YMS4 | item: COCCn1c2nc(=O)n(-c3ccccc3)c(=O)c-2nc2ccccc21
5.80

====

Reported IC50 values follow for various molecules
# assayed-target: SARS-CoV-2 NSP14 MTase (Severe acute respiratory syndrome coronavirus 2)
# Format: binding
# cond: 50 nM FL-NAH, NSP14 MTase; read-out: IC50-disp, inhibition of FL-NAH binding
Numeric answer only, unit µM assumed.

Answer with reported IC50 of CC(=O)c1cc(O)c2ccccc2c1O
5.1

Answer with reported IC50 of COCCn1c2nc(=O)n(-c3ccccc3)c(=O)c-2nc2ccccc21
2.7

====

# assayed-target: SARS-CoV-2 NSP14 MTase (Severe acute respiratory syndrome coronavirus 2, UniProt P0DTD1)
# cond: read-out: IC50-MS, NSP14 MTase activity
Reported IC50 values follow for various compounds
Numeric answer only, unit nM assumed.

COCCn1c2nc(=O)n(-c3ccccc3)c(=O)c-2nc2ccccc21 [NSC 288387]    4300

GET IC50 | system: SARS-CoV-2 NSP14 MTase (Severe acute respiratory syndrome coronavirus 2, UniProt P0DTD1) | item: CC(=O)c1cc(O)c2ccccc2c1O [NSC 111552]
1500

====

IC50, Human RNA MTase (hRNMT) (Homo sapiens, UniProt O43148), per-entry values.
Numeric answer only, unit µM assumed.

Answer with reported IC50 of CC(=O)c1cc(O)c2ccccc2c1O
63.3

Answer with reported IC50 of COCCn1c2nc(=O)n(-c3ccccc3)c(=O)c-2nc2ccccc21
35.5

====

# assayed-target: UniProt Q6YMS4
# protocol-text: HTRF MTase functional assay, DENV3
quantity-measured: IC50 (µM)
Numeric answer only, unit µM assumed.

COCCn1c2nc(=O)n(-c3ccccc3)c(=O)c-2nc2ccccc21 [NSC 288387]    6

The record that follows has no IC50 shown yet.
Answer with reported IC50 of CC(=O)c1cc(O)c2ccccc2c1O [NSC 111552]
3.9

====

IC50, UniProtKB A0A024B7W1, per-entry values.
Sequence (A0A024B7W1 2521-2785 limits assumed): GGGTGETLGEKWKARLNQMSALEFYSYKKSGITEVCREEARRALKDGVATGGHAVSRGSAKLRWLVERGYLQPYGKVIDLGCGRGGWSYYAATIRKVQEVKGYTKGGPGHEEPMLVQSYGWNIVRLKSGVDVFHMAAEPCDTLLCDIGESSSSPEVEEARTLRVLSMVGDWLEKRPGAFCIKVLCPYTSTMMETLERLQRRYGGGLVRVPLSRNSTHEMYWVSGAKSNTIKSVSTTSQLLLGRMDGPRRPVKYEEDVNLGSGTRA
Numeric answer only, unit µM assumed.

COCCn1c2nc(=O)n(-c3ccccc3)c(=O)c-2nc2ccccc21    6.8

The record that follows has no IC50 shown yet.
GET IC50 | system: UniProtKB A0A024B7W1 | item: CC(=O)c1cc(O)c2ccccc2c1O
12.9

====

# assayed-target: UniProtKB P0DTD1
quantity-measured: pKd
Answer as the number alone; pKd is minus log10 of concentration in mol/L.

COCCn1c2nc(=O)n(-c3ccccc3)c(=O)c-2nc2ccccc21    5.82

GET pKd | system: UniProtKB P0DTD1 | item: CC(=O)c1cc(O)c2ccccc2c1O
5.68
